Recorded values, source PubChem BioAssay AID434982.

# protocol-details: agonists of NOTCH signaling (AID 434982)
# assay-context: NOTCH signaling luciferase reporter cells, luminescence; at 2.5 µM; hits give high values
Out of some 15,000 compounds screened, about 60 (0.4%) were called active. This is one part of a sample in which actives are shown more often than they occur.
The reader will find reported activation values listed item by item below.

Lab book: activation of "CN(n1cnc2ccccc2c1=O)S(=O)(=O)c1cc(Cl)sc1Cl" noted as -0.39% (inactive)

Lab book: activation of "Cc1ncn2cc(-c3ccc(Cl)cc3Cl)[nH]c(=O)c12" noted as -0.34% (inactive)

Lab book: activation of "CCOC(=O)c1sc(SCCS(=O)(=O)c2ccc(Cl)cc2)c(C#N)c1-c1ccccc1" noted as -0.58% (inactive)
